Below: a set of entries, each annotated with reported GI50.
Test system: PC-3
Assay Text: NCI tumour cell line growth inhibition, 48 h
Active and inactive are the calls of the source. Cut-off read from the data, not from the text of the source: active = GI50 up to about 1.1 µM and inactive = higher.

Solved entries (count: 4):
In [3]: df
Out[3]:
                                   compound               result
0  C=C1C(=O)O[C@@H]2C[C@@]3(C)CCC[C@H](C)C3=C[C@H]12   11.6 µM (inactive)
1  COC(=O)Nc1nc2cc(NC(=O)c3ccc(I)cc3)ccc2[nH]1  > 100 µM (inactive)
2                   Cc1ccc(C)n2c1nc1ccccc12  > 100 µM (inactive)
3  O=C1OC(C2Cc3ccc4c(c3C2=O)CCCC4)c2ccccc21 (stereo not given)   26.4 µM (inactive)

// moving on: another record for GI50
Complete the entry with GI50 for Cn1c(=O)c2[nH]c(N/N=C3/SCC(=O)N3Cc3ccccc3)nc2n(C)c1=O
> 100 µM (inactive)

FYI, the data here is from ChEMBL document CHEMBL1201862.
